Recorded measurements of Activity, one per entry
Target: Voltage-gated L-type calcium channel (Homo sapiens, UniProt Q13936+Q13698+Q01668+O60840)
Test: Inhibition of voltage-dependent L-type calcium channel in human SH-SY5Y cells assessed as protection against glutamate-induced excitotoxicity by measuring recovery of cell viability at 1 uM measured after 24 hrs by alamar blue-based fluorescence method relative to control
quantity name: Activity (%)

{"compound": "CCOC(=O)C1=C(C)NC(C)=C(C(=O)OCC)C1c1c(-c2cc(OC)ccc2OC)nc2sc(Br)cn12", "relation operator": "<", "observed value": 5}
{"compound": "CCOC(=O)C1=C(C)NC(C)=C(C(=O)OCC)C1c1c(-c2ccc(F)cc2)nc2sc(C)cn12", "relation operator": "=", "observed value": 28.9}
{"compound": "CCOC(=O)C1=C(C)NC(C)=C(C(=O)OCC)C1c1c(-c2cc(OC)cc(OC)c2)nc2sc(Br)cn12", "relation operator": "=", "observed value": 17.4}
{"compound": "CCOC(=O)C1=C(C)NC(C)=C(C(=O)OCC)C1c1c(-c2c(F)cccc2F)nc2sccn12", "relation operator": "=", "observed value": 19.5}
{"compound": "CCOC(=O)C1=C(C)NC(C)=C(C(=O)OCC)C1c1c(-c2ccc(F)c(F)c2)nc2sccn12", "relation operator": "=", "observed value": 37.4}
{"compound": "COC(=O)C1=C(C)NC(C)=C(C(=O)OC)C1c1c(-c2cc(OC)ccc2OC)nc2sccn12", "relation operator": "=", "observed value": 51.9}
{"compound": "COC(=O)C1=C(C)NC(C)=C(C(=O)OC)C1c1c(-c2cc(OC)ccc2OC)nc2sc(Cl)cn12", "relation operator": "=", "observed value": 42}
{"compound": "COC(=O)C1=C(C)NC(C)=C(C(=O)OC)C1c1c(-c2ccc(OC(F)(F)F)cc2)nc2sccn12", "relation operator": "=", "observed value": 37.4}
{"compound": "CCOC(=O)C1=C(C)NC(C)=C(C(=O)OCC)C1c1c(-c2ccc(F)cc2)nc2sccn12", "relation operator": "=", "observed value": 42.6}
{"compound": "COC(=O)C1=C(C)NC(C)=C(C(=O)OC)C1c1c(C(F)(F)F)nc2sc(C)cn12", "relation operator": "=", "observed value": 35.4}
{"compound": "CCOC(=O)C1=C(C)NC(C)=C(C(=O)OCC)C1c1c(-c2cc(OC)ccc2OC)nc2sc(C)cn12", "relation operator": "<", "observed value": 5}
{"compound": "C=CCOC(=O)C1=C(C)NC(C)=C(C(=O)OCC=C)C1c1c(-c2cc(OC)c([N+](=O)[O-])cc2OC)nc2sccn12", "relation operator": "=", "observed value": 40.6}
{"compound": "COC(=O)C1=C(C)NC(C)=C(C(=O)OC)C1c1c(-c2ccc(C(F)(F)F)cc2)nc2sccn12", "relation operator": "=", "observed value": 17.5}
{"compound": "COC(=O)C1=C(C)NC(C)=C(C(=O)OC)C1c1c(-c2ccccc2OC)nc2sccn12", "relation operator": "<", "observed value": 5}
{"compound": "CCOC(=O)C1=C(C)NC(C)=C(C(=O)OCC)C1c1c(-c2ccc(Br)c([N+](=O)[O-])c2)nc2sccn12", "relation operator": "<", "observed value": 5}
{"compound": "CCOC(=O)C1=C(C)NC(C)=C(C(=O)OCC)C1c1c(-c2ccc(OC(F)(F)F)cc2)nc2sc(Br)cn12", "relation operator": "<", "observed value": 5}
{"compound": "CCOC(=O)C1=C(C)NC(C)=C(C(=O)OCC)C1c1c(-c2ccc(Cl)cc2)nc2sc(Cl)cn12", "relation operator": "=", "observed value": 25.1}
{"compound": "CCOC(=O)C1=C(C)NC(C)=C(C(=O)OCC)C1c1c(-c2cc([N+](=O)[O-])c(Cl)cc2Cl)nc2sc(CC)cn12", "relation operator": "=", "observed value": 14.7}
{"compound": "COC(=O)C1=C(C)NC(C)=C(C(=O)OC)C1c1ccccc1[N+](=O)[O-] [NIFEDIPINE]", "relation operator": "=", "observed value": 55}
{"compound": "COC(=O)C1=C(C)NC(C)=C(C(=O)OC)C1c1c(-c2cc(OC)c([N+](=O)[O-])cc2OC)nc2sccn12", "relation operator": "=", "observed value": 31.5}
{"compound": "COC(=O)C1=C(C)NC(C)=C(C(=O)OC)C1c1c(C(F)(F)F)nc2sccn12", "relation operator": "=", "observed value": 44.1}
{"compound": "CCOC(=O)C1=C(C)NC(C)=C(C(=O)OCC)C1c1c(-c2ccc([N+](=O)[O-])cc2)nc2sc(F)cn12", "relation operator": "=", "observed value": 28.8}
{"compound": "CCOC(=O)C1=C(C)NC(C)=C(C(=O)OCC)C1c1c(-c2cc(F)c(F)cc2F)nc2sccn12", "relation operator": "<", "observed value": 5}
{"compound": "CCOC(=O)C1=C(C)NC(C)=C(C(=O)OCC)C1c1c(-c2ccc(Cl)cc2)nc2sccn12", "relation operator": "=", "observed value": 6.8}
{"compound": "CCOC(=O)C1=C(C)NC(C)=C(C(=O)OCC)C1c1c(-c2ccc(OC)c(OC)c2)nc2sc(Br)cn12", "relation operator": "=", "observed value": 18.2}
{"compound": "CCOC(=O)C1=C(C)NC(C)=C(C(=O)OCC)C1c1c(-c2ccc(F)cc2)nc2sc(Cl)cn12", "relation operator": "=", "observed value": 44.9}
{"compound": "CCOC(=O)C1=C(C)NC(C)=C(C(=O)OCC)C1c1c(-c2cc(OC)ccc2OC)nc2sccn12", "relation operator": "=", "observed value": 42.8}
{"compound": "CCOC(=O)C1=C(C)NC(C)=C(C(=O)OCC)C1c1c(-c2ccc([N+](=O)[O-])cc2)nc2sc(Cl)cn12", "relation operator": "<", "observed value": 5}
{"compound": "CCOC(=O)C1=C(C)NC(C)=C(C(=O)OCC)C1c1c(-c2ccccc2F)nc2sccn12", "relation operator": "=", "observed value": 53.2}
{"compound": "CCOC(=O)C1=C(C)NC(C)=C(C(=O)OCC)C1c1c(-c2cc([N+](=O)[O-])c(Cl)cc2Cl)nc2sc(Cl)cn12", "relation operator": "=", "observed value": 40.8}
{"compound": "COC(=O)C1=C(C)NC(C)=C(C(=O)OC)C1c1c(-c2ccccc2)nc2scc(C)n12", "relation operator": "=", "observed value": 85.1}
{"compound": "COC(=O)C1=C(C)NC(C)=C(C(=O)OC)C1c1c(-c2c(OC)ccc(OC)c2[N+](=O)[O-])nc2sc(Cl)cn12", "relation operator": "=", "observed value": 13.1}
{"compound": "COC(=O)C1=C(C)NC(C)=C(C(=O)OC)C1c1c(-c2cccc(OC)c2)nc2sccn12", "relation operator": "<", "observed value": 5}

Data origin: ChEMBL document CHEMBL4385592
